# assay.protocol: Apparent intrinsic clearance in human liver microsomes at 37 degC at pH 7.4 by RP-UPLC-MS analysis
# Format: ADME, microsome
# study.conditions: read-out: CLH(app)
property.label: CLint scaled (mL/min/kg)
Give the number; mL/min/kg is assumed, so skip it.

So what's the measured CLint scaled for this one? `CN(Cc1cnc2nc(N)nc(N)c2n1)c1ccc(C(=O)N[C@@H](CCC(=O)N2CCSC2=O)C(=O)O)cc1`
1.4

###

# assay.protocol: Half life in 20% DMSO/PBS at 100 uM at 37 degC at pH 7.4 by RP-UPLC-MS analysis
# Type: physicochemical
property.label: half-life at 100 µM (h)
Give the number; h is assumed, so skip it.

So what's the measured half-life at 100 µM for this one? `CN(Cc1cnc2nc(N)nc(N)c2n1)c1ccc(C(=O)N[C@@H](CCC(=O)N2CCSC2=O)C(=O)O)cc1`
116

###

# assay.protocol: Half life in human plasma at 37 degC at pH 7.4 by RP-UPLC-MS analysis
# Assay type: ADME, cell-free
property.label: half-life (h)
Give the number; h is assumed, so skip it.

So what's the measured half-life for this one? `CN(Cc1cnc2nc(N)nc(N)c2n1)c1ccc(C(=O)N[C@@H](CCC(=O)N2CCSC2=O)C(=O)O)cc1`
7

###

# assay.protocol: Thermodynamic solubility in pH 7.4 PBS buffer at 2 mg sonicated for 10 mins followed by incubation at 20 degC for 15 hrs by RP-UPLC-MS analysis
# Assay type: physicochemical
# study.conditions: read-out: Therm_solubility
property.label: solubility thermodynamic at 15 h (µg/mL)
Give the number; µg/mL is assumed, so skip it.

So what's the measured solubility thermodynamic at 15 h for this one? `CN(Cc1cnc2nc(N)nc(N)c2n1)c1ccc(C(=O)N[C@@H](CCC(=O)N2CCSC2=O)C(=O)O)cc1`
400
